Attribution: paper PMC6780721

- Target or test system: GOBP2 (Conogethes punctiferalis)
- Sequence (A0A146JYY2 entry or part of it): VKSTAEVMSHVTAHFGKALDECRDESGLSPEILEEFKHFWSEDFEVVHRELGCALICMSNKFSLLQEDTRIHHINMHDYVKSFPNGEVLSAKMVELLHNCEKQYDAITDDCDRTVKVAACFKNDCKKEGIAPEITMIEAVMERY
- Experiment summary: Fluorescence competitive binding assay with 1-NPN, recombinant GOBP2
- Protocol: Signal peptides were removed from complete ORF sequences of both genes and primers were designed, using antennal cDNA as the templates the GOBP1 and 2 were amplified and cloned using pEASY-T vector (TransGen Biotech, Beijing, China). The sense and antisense primers designed for GOBP1 and GOBP2. […] Purified protein concentrations of GOBP1 and GOBP2 was determined by the method of Bradford using BSA as standard The western blot method was performed to analyze the correct expression. […]
For each record, write down the corresponding pIC50.
Answers are plain numbers, as −log10 of the molar value.

In the examples that follow, each entry is paired with its recorded pIC50.
1. CC1=CCC2CC1C2(C)C (stereo not drawn) [α-Pinene]	4.17
2. CC/C=C\CCO [Cis-3-hexen-1-ol]	4.29
3. C=CC(C)(O)CCC=C(C)C (stereo not drawn) [Linalool]	4.35
4. CCCCCCCCCCCCCCO [1-Tetradecanol]	4.27
5. C=C1CCC2CC1C2(C)C (stereo not drawn) [β-Pinene]	4.47

Query :: Fill in reported pIC50 for this entry: O=Cc1ccccc1 [Benzaldehyde]
Result :: 4.11
